# Tested target: human Smo (amino acids 181-787) (Homo sapiens, UniProt Q99835)
# Construct: expressed in transfected cells; membrane preparation
# Sequence (Q99835 181-787): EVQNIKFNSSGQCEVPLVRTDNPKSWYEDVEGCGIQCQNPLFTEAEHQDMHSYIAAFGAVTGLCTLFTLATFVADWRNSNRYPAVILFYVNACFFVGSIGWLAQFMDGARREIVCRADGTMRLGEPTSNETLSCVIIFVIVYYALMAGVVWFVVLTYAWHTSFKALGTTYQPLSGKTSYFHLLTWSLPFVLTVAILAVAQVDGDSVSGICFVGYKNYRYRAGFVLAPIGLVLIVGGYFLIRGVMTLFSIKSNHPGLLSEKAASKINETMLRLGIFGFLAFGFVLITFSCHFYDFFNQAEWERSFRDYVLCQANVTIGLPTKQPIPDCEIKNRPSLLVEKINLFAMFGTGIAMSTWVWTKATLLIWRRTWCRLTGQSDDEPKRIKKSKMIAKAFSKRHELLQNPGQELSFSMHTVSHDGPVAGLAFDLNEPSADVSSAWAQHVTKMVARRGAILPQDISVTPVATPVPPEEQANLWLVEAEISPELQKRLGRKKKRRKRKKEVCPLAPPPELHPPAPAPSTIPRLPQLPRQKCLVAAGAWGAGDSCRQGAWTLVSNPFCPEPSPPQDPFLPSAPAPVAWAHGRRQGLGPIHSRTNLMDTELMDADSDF
# Assay summary: Smo radioligand competition binding assay (displacement of 3H-PF-03451358 from HEK293 membranes)
# Measurement context: 0.05 μM test compound; displacement of 3H-PF-03451358; read-out: SMO % inh. @ 0.05 μM
The threshold is inclusive: inhibition at 0.05 µM of exactly 80% counts as MET; values below receive NOT MET.

[
  {
    "Compound": "CC(=O)N1CCN(c2cccc(-c3nc4ccccc4n3C)n2)CC1 [Example B-8]",
    "Qualitative label": "MET"
  },
  {
    "Compound": "Cn1c(-c2cc(N3CCOCC(N4CCC(O)CC4)C3)ncc2Cl)nc2ccccc21 (centres unmarked) [Example A-115]",
    "Qualitative label": "NOT MET"
  },
  {
    "Compound": "Cn1c(-c2cc(N3CCC(O)(c4ccncn4)C3)ncc2Cl)nc2ccccc21 (centres unmarked) [Example A-122]",
    "Qualitative label": "NOT MET"
  },
  {
    "Compound": "Cn1c(-c2cc(N3C[C@@H]4[C@H](C3)[C@H]4NS(C)(=O)=O)ncc2Cl)nc2ccccc21 [Example A-8]",
    "Qualitative label": "MET"
  },
  {
    "Compound": "Cn1c(-c2cc(N3CCc4[nH]cnc4C3)ncc2Cl)nc2ccccc21 [Example A-107]",
    "Qualitative label": "NOT MET"
  },
  {
    "Compound": "Cn1c(-c2cc(N3CC[C@@H](O)[C@H](O)C3)ncc2Cl)nc2ccccc21 [Example A-63]",
    "Qualitative label": "MET"
  },
  {
    "Compound": "CCS(=O)(=O)N1CCN(c2cc(-c3nc4ccccc4n3C)c(F)cn2)CC1 [Example D-5]",
    "Qualitative label": "MET"
  }
]

###

# Tested target: human Smo (amino acids 181-787) (Homo sapiens)
# Construct: expressed in transfected cells; membrane preparation
# Assay summary: Smo radioligand competition binding assay (displacement of 3H-PF-03451358 from HEK293 membranes)
# Measurement context: radioligand competition binding
pIC50: −log10 of the molar value.

[
  {
    "Compound": "Cn1c(-c2cc(N3CCN(CCO)CC3)ncc2Cl)nc2ccccc21",
    "pIC50": 7.11
  },
  {
    "Compound": "Cn1nc2n(c1=O)CCN(c1cc(-c3nc4ccccc4n3C)c(Cl)cn1)CC2",
    "pIC50": 7.85
  },
  {
    "Compound": "Cn1c(-c2cc(N3CCc4[nH]cnc4C3)ncc2Cl)nc2ccccc21",
    "pIC50": 6.91
  },
  {
    "Compound": "Cn1c(-c2cc(N3CCS(=O)(=O)CC3)ncc2Cl)nc2ccccc21",
    "pIC50": 7.40
  },
  {
    "Compound": "Cn1c(-c2cc(N3CCC(N4CCCC4=O)CC3)ncc2Cl)nc2ccccc21",
    "pIC50": 7.62
  },
  {
    "Compound": "Cn1c(-c2ccnc(N3CCCNCC3)c2)nc2ccccc21",
    "pIC50": 6.37
  },
  {
    "Compound": "Cn1c(-c2cc(N3CCC(C(=O)NC4CCOC4)CC3)ncc2Cl)nc2ccccc21 (stereo not drawn)",
    "pIC50": 7.64
  },
  {
    "Compound": "Cn1c(-c2cc(N3CCCn4cnc(CO)c4C3)ncc2Cl)nc2ccccc21",
    "pIC50": 6.79
  },
  {
    "Compound": "Cn1c(-c2ccnc(N3CCC(CS(C)(=O)=O)CC3)c2)nc2ccccc21",
    "pIC50": 7.32
  }
]

###

Listing of entries alongside the reported inhibition at 0.05 µM.
# Tested target: human Smo (amino acids 181-787) (Homo sapiens, UniProt Q99835)
# Construct: expressed in transfected cells; membrane preparation
# Assay summary: Smo radioligand competition binding assay (displacement of 3H-PF-03451358 from HEK293 membranes)
# Measurement context: 0.05 μM test compound; displacement of 3H-PF-03451358; read-out: SMO % inh. @ 0.05 μM

[
  {
    "Compound": "CC(=O)N1CCN(c2nccc(-c3nc4ccccc4n3C)n2)CC1",
    "Value units": "%",
    "inhibition at 0.05 µM": 65
  },
  {
    "Compound": "C[C@@H]1CN(c2cc(-c3nc4ccccc4n3C)c(Cl)cn2)CCN1S(C)(=O)=O",
    "Value units": "%",
    "inhibition at 0.05 µM": 99
  },
  {
    "Compound": "Cn1c(-c2cc(N3CCOC(c4nc(C5CC5)no4)C3)ncc2Cl)nc2ccccc21 (centres unmarked)",
    "Value units": "%",
    "inhibition at 0.05 µM": 92
  },
  {
    "Compound": "Cn1c(-c2cc(N3CCOCC(O)C3)ncc2Cl)nc2ccccc21 (centres unmarked)",
    "Value units": "%",
    "inhibition at 0.05 µM": 98
  },
  {
    "Compound": "C[C@@H]1CN(c2cc(-c3nc4ccccc4n3C)c(Cl)cn2)CCN1",
    "Value units": "%",
    "inhibition at 0.05 µM": 95
  }
]

###

# Tested target: human Smo (amino acids 181-787) (Homo sapiens, UniProt Q99835)
# Construct: expressed in transfected cells; membrane preparation
# Assay summary: Smo radioligand competition binding assay (displacement of 3H-PF-03451358 from HEK293 membranes)
# Measurement context: 0.05 μM test compound; displacement of 3H-PF-03451358; read-out: SMO % inh. @ 0.05 μM

[
  {
    "Molecule": "Cc1nc(CC2CN(c3cc(-c4nc5ccccc5n4C)c(Cl)cn3)CCO2)no1 (stereo not drawn) [Example A-52]",
    "inhibition at 0.05 µM (%)": 99
  },
  {
    "Molecule": "C[C@H]1CN(c2cc(-c3nc4ccccc4n3C)c(Cl)cn2)CCN1 [Example A-160]",
    "inhibition at 0.05 µM (%)": 98
  },
  {
    "Molecule": "Cn1c(-c2nc(N3CCN(C=O)CC3)ccc2Cl)nc2ccccc21 [Example B-5]",
    "inhibition at 0.05 µM (%)": 92
  },
  {
    "Molecule": "Cn1c(-c2cc(N3CC(c4cccnn4)C3)ncc2Cl)nc2ccccc21 [Example A-139]",
    "inhibition at 0.05 µM (%)": 42
  },
  {
    "Molecule": "Cn1c(-c2cc(N3CCC(O)CC3)ncc2Cl)nc2cccnc21 [Example A-169]",
    "inhibition at 0.05 µM (%)": 76
  },
  {
    "Molecule": "Cn1c(-c2cc(N3CCC(OCCO)CC3)ncc2Cl)nc2ccccc21 [Example A-79]",
    "inhibition at 0.05 µM (%)": 92
  },
  {
    "Molecule": "Cn1c(-c2cc(NCCN)ncc2Cl)nc2ccccc21 [Example A-142]",
    "inhibition at 0.05 µM (%)": 44
  },
  {
    "Molecule": "CC(=O)N1[C@@H]2CC[C@H]1CN(c1cc(-c3nc4ccccc4n3C)c(Cl)cn1)C2 [Example A-187]",
    "inhibition at 0.05 µM (%)": 90
  },
  {
    "Molecule": "Cn1c(-c2nc(N3CCC(NS(C)(=O)=O)CC3)ccc2Cl)nc2ccccc21 [Example B-12]",
    "inhibition at 0.05 µM (%)": 100
  }
]

###

# Tested target: human Smo (amino acids 181-787) (Homo sapiens, UniProt Q99835)
# Construct: expressed in transfected cells; membrane preparation
# Assay summary: Smo radioligand competition binding assay (displacement of 3H-PF-03451358 from HEK293 membranes)
# Measurement context: 0.05 μM test compound; displacement of 3H-PF-03451358; read-out: SMO % inh. @ 0.05 μM
Listing of entries alongside the reported inhibition at 0.05 µM.

[
  {
    "Compound": "Cn1c(-c2cc(N3CC(O)C3)ncc2Cl)nc2ccccc21",
    "inhibition at 0.05 µM, %": 87
  },
  {
    "Compound": "CCNC(=O)NC1CN(c2cc(-c3nc4ccccc4n3C)c(Cl)cn2)C1",
    "inhibition at 0.05 µM, %": 95
  },
  {
    "Compound": "CN1CC2(CCN(c3cc(-c4nc5ccccc5n4C)c(Cl)cn3)CC2)OC1=O",
    "inhibition at 0.05 µM, %": 96
  },
  {
    "Compound": "CC1CC2(CCN1c1cc(-c3nc4ccccc4n3C)c(Cl)cn1)CNC(=O)C2 (stereo in doubt)",
    "inhibition at 0.05 µM, %": 100
  },
  {
    "Compound": "Cn1c(-c2cc(N3CCOCC(CO)C3)ncc2Cl)nc2ccccc21 (centres unmarked)",
    "inhibition at 0.05 µM, %": 101
  },
  {
    "Compound": "Cn1c(-c2cccc(N3CCN(S(C)(=O)=O)CC3)n2)nc2ccccc21",
    "inhibition at 0.05 µM, %": 78
  },
  {
    "Compound": "COC1CCOC2(CCN(c3cc(-c4nc5ccccc5n4C)c(Cl)cn3)CC2)C1 (centres unmarked)",
    "inhibition at 0.05 µM, %": 88
  },
  {
    "Compound": "Cn1c(-c2cc(N3CCn4c(nnc4C(F)F)C3)ncc2Cl)nc2ccccc21",
    "inhibition at 0.05 µM, %": 81
  },
  {
    "Compound": "CNC(=O)NC1CCN(c2cc(-c3nc4ccccc4n3C)c(Cl)cn2)C1 (centres unmarked)",
    "inhibition at 0.05 µM, %": 82
  },
  {
    "Compound": "CN1CC2(CCN(c3cc(-c4nc5ccccc5n4C)c(Cl)cn3)CC2)CC1=O",
    "inhibition at 0.05 µM, %": 92
  },
  {
    "Compound": "CN(CC(N)=O)c1cc(-c2nc3ccccc3n2C)c(Cl)cn1",
    "inhibition at 0.05 µM, %": 78
  },
  {
    "Compound": "COCC(=O)N1CCN(c2cc(-c3nc4ccccc4n3C)c(Cl)cn2)CC1",
    "inhibition at 0.05 µM, %": 96
  },
  {
    "Compound": "Cn1c(-c2cc(N3CCC(N4CCNC(=O)C4=O)CC3)ncc2Cl)nc2ccccc21",
    "inhibition at 0.05 µM, %": 85
  },
  {
    "Compound": "CN(CC(C)(C)O)c1cc(-c2nc3ccccc3n2C)c(Cl)cn1",
    "inhibition at 0.05 µM, %": 97
  },
  {
    "Compound": "Cn1c(-c2cc(N3CCC(OC(N)=O)CC3)ncc2Cl)nc2ccccc21",
    "inhibition at 0.05 µM, %": 94
  },
  {
    "Compound": "Cn1c(-c2cc(N3CCn4c(CCCO)nnc4C3)ncc2Cl)nc2ccccc21",
    "inhibition at 0.05 µM, %": 78
  },
  {
    "Compound": "Cn1c(-c2cc(N3C[C@@H](CO)[C@@H](CCO)C3)ncc2Cl)nc2ccccc21",
    "inhibition at 0.05 µM, %": 73
  }
]
